method: MTT cytotoxicity in SH-SY5Y cells
Assay type: cell-based
experimental conditions: human, 24 h treatment, read-out: half maximal inhibitory concentration (IC50), cytotoxicity
This section presents compounds with their documented IC50 at 24 h values.
Note to self: number, then unit, no commentary.

[[record]]
compound = "CCOC(=O)[C@@H]1OC(O)[C@H](C)[C@@H](c2ccccc2)[C@@H]1[N+](=O)[O-] (stereo partly drawn)"
readout_value = "275 µM"

[[record]]
compound = "CCOC(=O)[C@@H]1OC(O)[C@H](C)[C@@H](c2ccc(OC)cc2)[C@@H]1[N+](=O)[O-] (stereo partly drawn)"
readout_value = "267 µM"


Record request: IC50 at 24 h value, item CCOC(=O)[C@@H]1OC(O)[C@H](C)[C@@H](c2cccs2)[C@@H]1[N+](=O)[O-] (stereo partly drawn) 273 µM

Hello, the source for this data is patent US10064838B2, in case you need it.
